# Tested on: HL-60
# Protocol: NCI tumour cell line growth inhibition, 48 h
The source made the active and inactive calls. Cut-off read from the data, not from the text of the source: active = GI50 up to about 1.1 µM and inactive = higher.
Labels: 1 (active), 0 (inactive)

# Compound, Assigned Category
rows = [
    ("O=C(Nc1ccccc1)C(=O)C(C(=O)c1ccccc1)C(c1ccccc1)c1ccccc1 (centres undefined)", 0),
    ("O=CNNC(=O)Nc1ccc(Cl)cc1", 0),
    ("Cc1ccc(NC(=O)CC2C(=O)Nc3ccccc3S2(=O)=O)cc1C (centres undefined)", 0),
    ("CO[C@@]12[C@H](COC(N)=O)C3=C(C(=O)C(C)=C(N)C3=O)N1C[C@H]1[C@@H]2N1C (some centres undefined)", 1),
]
